Hi there, I'd appreciate the recorded Release of dopamine, substantia nigra for every entry that follows.
# System: dopamine release, substantia nigra
# measurementDescription: Release of biogenic amines from brain tissue: dopamine, substantia nigra
# Format: in vivo, Wistar rats
# particulars: 0.01 mg/kg s.c.

Incoming: Reported Release of dopamine, substantia nigra, compound CCCNC(CCC)Cc1cccc2[nH]ccc12.Cl (centres unmarked) : ____
Outgoing: 10.0 ± 0.30 nmol/g tissue, for 20 min

Incoming: Repeat for the following compound: CCCNC(CCC)Cc1ccc2cc[nH]c2c1.Cl (centres unmarked)
Outgoing: 11.9 ± 0.39 nmol/g tissue, for 20 min

Incoming: Repeat for the following compound: CCCNC(CCC)Cc1cc2ccccc2s1.Cl (centres unmarked)
Outgoing: 14.0 ± 0.23 nmol/g tissue, for 20 min

Incoming: Repeat for the following compound: CCCNC(CCC)Cc1csc2ccccc12.Cl (centres unmarked)
Outgoing: 12.0 ± 0.34 nmol/g tissue, for 20 min

Incoming: Repeat for the following compound: CCCNC(CCC)Cc1cc2ccccc2o1.Cl (centres unmarked)
Outgoing: 6.6 ± 0.04 nmol/g tissue, for 20 min

----------
# testSystem: α2 receptor
# measurementDescription: Affinity to α2 receptor
# particulars: read-out: Affinity to α2 receptor (MIC50; mole concentration for 50% inhibition of binding); 0.7 nM ^3H-rauwolscine
Doc: threshold 700 nM (exclusive). Items with IC50 beneath it return MET; others return NOT MET.

Incoming: Hi there! Is IC50 for CC(C)C[C@H]1C(=O)N2CCC[C@H]2[C@]2(O)O[C@](NC(=O)[C@@H]3C=C4c5cccc6[nH]c(Br)c(c56)C[C@H]4N(C)C3)(C(C)C)C(=O)N12 [Bromocriptine, reference compound] below 700 nM, do you know?
Outgoing: MET

Incoming: Repeat for the following compound: C#CCN(C)[C@H](C)Cc1ccccc1 [Selegiline, reference compound]
Outgoing: NOT MET

Incoming: Repeat for the following compound: CCCNC(CCC)Cc1cc2ccccc2o1.Cl (centres unmarked) [Compound No. 25, Hydrochloride]
Outgoing: NOT MET

Incoming: Repeat for the following compound: CCCNC(CCC)Cc1c[nH]c2ccccc12.Cl (centres unmarked) [Compound No. 20, Hydrochloride]
Outgoing: NOT MET

----------
# testSystem: human platelet MAO-B (Homo sapiens, UniProt P27338)
# Construct: The suspension was used as enzyme for MAO activity assay in blood platelets; from tissue; host or cells: human blood platelets (frozen, thawed and sonicated platelet rich plasma)
# Sequence (P27338 whole entry): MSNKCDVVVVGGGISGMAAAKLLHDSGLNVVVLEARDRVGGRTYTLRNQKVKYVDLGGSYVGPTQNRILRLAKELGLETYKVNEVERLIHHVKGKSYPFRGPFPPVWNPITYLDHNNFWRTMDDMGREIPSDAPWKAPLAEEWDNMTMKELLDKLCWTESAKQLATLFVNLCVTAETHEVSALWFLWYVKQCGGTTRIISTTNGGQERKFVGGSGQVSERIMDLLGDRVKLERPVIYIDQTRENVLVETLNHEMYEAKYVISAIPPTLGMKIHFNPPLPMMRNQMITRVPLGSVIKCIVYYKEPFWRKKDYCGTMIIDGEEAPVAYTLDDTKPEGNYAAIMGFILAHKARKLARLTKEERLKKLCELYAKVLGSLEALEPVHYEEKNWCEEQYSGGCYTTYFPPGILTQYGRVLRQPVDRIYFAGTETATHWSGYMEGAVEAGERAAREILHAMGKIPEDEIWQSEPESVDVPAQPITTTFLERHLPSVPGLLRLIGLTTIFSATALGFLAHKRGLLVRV
# measurementDescription: biochemical
# particulars: 10^-5 M; read-out: Inhibition rate of MAO-B
Quick rule: inhibition at 10 µM of at least 20% means rule met, below that means rule not met.

Incoming: Determine whether measured inhibition at 10 µM meets or exceeds 20% for CCCNC(CC)Cc1ccc2ccccc2c1 (stereo not drawn)
Outgoing: rule met

Incoming: Repeat for the following molecule: CCCNC(CCC)Cc1cccc2ccccc12 (stereo not drawn)
Outgoing: rule not met

Incoming: Repeat for the following molecule: CCCNC(CCC)Cc1c[nH]c2ccccc12.Cl (stereo not drawn) [Compound No. 20, Hydrochloride]
Outgoing: rule not met

Incoming: Repeat for the following molecule: CCCC(Cc1ccc2ccccc2c1)NCC (stereo not drawn)
Outgoing: rule met

Incoming: Repeat for the following molecule: CCCNC(CCC)Cc1ccc2c(c1)OCO2.Cl (stereo not drawn) [Compound No. 27, Hydrochloride]
Outgoing: rule met

Incoming: Repeat for the following molecule: CCCNC(CCC)Cc1cccc2c1OCO2.Cl (stereo not drawn) [Compound No. 28, Hydrochloride]
Outgoing: rule met
